Recorded values, source BigSolDB 2.1.

condition: in ethanol, 283.15 K
endpoint: solubility (mole fraction)

> print(dat)
                cpd.smiles                    endpoint  reported.value
1  O=C(O)c1ccccc1Nc1ccccc1  solubility (mole fraction)         0.00703

---

condition: in n-propanol, 313.15 K
endpoint: solubility (mole fraction)

> print(dat)
                cpd.smiles  reported.value
1  O=C(O)c1ccccc1Nc1ccccc1          0.0322

---

condition: in toluene, 283.15 K
endpoint: solubility (mole fraction)

> print(dat)
                cpd.smiles                    endpoint  reported.value
1  O=C(O)c1ccccc1Nc1ccccc1  solubility (mole fraction)         0.00238

---

condition: in ethyl acetate, 288.15 K
endpoint: solubility (mole fraction)

> print(dat)
                cpd.smiles  reported.value
1  O=C(O)c1ccccc1Nc1ccccc1          0.0156

---

condition: in ethanol, 293.15 K
endpoint: solubility (mole fraction)

> print(dat)
                cpd.smiles  reported.value
1  O=C(O)c1ccccc1Nc1ccccc1          0.0112

---

condition: in acetonitrile, 315.65 K
endpoint: solubility (mole fraction)

> print(dat)
                cpd.smiles  reported.value
1  O=C(O)c1ccccc1Nc1ccccc1         0.00892

---

condition: in methanol, 300.65 K
endpoint: solubility (mole fraction)

> print(dat)
                cpd.smiles  reported.value
1  O=C(O)c1ccccc1Nc1ccccc1         0.00944

---

condition: in methanol, 295.65 K
endpoint: solubility (mole fraction)

> print(dat)
                cpd.smiles                    endpoint  reported.value
1  O=C(O)c1ccccc1Nc1ccccc1  solubility (mole fraction)         0.00723

---

condition: in ethyl acetate, 285.65 K
endpoint: solubility (mole fraction)

> print(dat)
                cpd.smiles                    endpoint  reported.value
1  O=C(O)c1ccccc1Nc1ccccc1  solubility (mole fraction)          0.0133

---

condition: in toluene, 285.65 K
endpoint: solubility (mole fraction)

> print(dat)
                cpd.smiles  reported.value
1  O=C(O)c1ccccc1Nc1ccccc1         0.00275

---

condition: in n-butanol, 308.15 K
endpoint: solubility (mole fraction)

> print(dat)
                cpd.smiles                    endpoint  reported.value
1  O=C(O)c1ccccc1Nc1ccccc1  solubility (mole fraction)          0.0283

---

condition: in toluene, 308.15 K
endpoint: solubility (mole fraction)

> print(dat)
                cpd.smiles  reported.value
1  O=C(O)c1ccccc1Nc1ccccc1          0.0096

---

condition: in n-butanol, 310.65 K
endpoint: solubility (mole fraction)

> print(dat)
                cpd.smiles                    endpoint  reported.value
1  O=C(O)c1ccccc1Nc1ccccc1  solubility (mole fraction)          0.0311

---

condition: in ethanol, 288.15 K
endpoint: solubility (mole fraction)

> print(dat)
                cpd.smiles  reported.value
1  O=C(O)c1ccccc1Nc1ccccc1         0.00854

---

condition: in ethyl acetate, 318.15 K
endpoint: solubility (mole fraction)

> print(dat)
                cpd.smiles  reported.value
1  O=C(O)c1ccccc1Nc1ccccc1          0.0604

---

condition: in ethyl acetate, 305.65 K
endpoint: solubility (mole fraction)

> print(dat)
                cpd.smiles  reported.value
1  O=C(O)c1ccccc1Nc1ccccc1          0.0373

---

condition: in ethanol, 285.65 K
endpoint: solubility (mole fraction)

> print(dat)
                cpd.smiles  reported.value
1  O=C(O)c1ccccc1Nc1ccccc1         0.00768

---

condition: in n-propanol, 293.15 K
endpoint: solubility (mole fraction)

> print(dat)
                cpd.smiles                    endpoint  reported.value
1  O=C(O)c1ccccc1Nc1ccccc1  solubility (mole fraction)          0.0132

---

condition: in methanol, 315.65 K
endpoint: solubility (mole fraction)

> print(dat)
                cpd.smiles                    endpoint  reported.value
1  O=C(O)c1ccccc1Nc1ccccc1  solubility (mole fraction)          0.0186

---

condition: in n-propanol, 315.65 K
endpoint: solubility (mole fraction)

> print(dat)
                cpd.smiles                    endpoint  reported.value
1  O=C(O)c1ccccc1Nc1ccccc1  solubility (mole fraction)           0.035

---

condition: in ethyl acetate, 293.15 K
endpoint: solubility (mole fraction)

> print(dat)
                cpd.smiles                    endpoint  reported.value
1  O=C(O)c1ccccc1Nc1ccccc1  solubility (mole fraction)          0.0213

---

condition: in n-butanol, 315.65 K
endpoint: solubility (mole fraction)

> print(dat)
                cpd.smiles  reported.value
1  O=C(O)c1ccccc1Nc1ccccc1          0.0367

---

condition: in toluene, 305.65 K
endpoint: solubility (mole fraction)

> print(dat)
                cpd.smiles  reported.value
1  O=C(O)c1ccccc1Nc1ccccc1         0.00841

---

condition: in ethanol, 305.65 K
endpoint: solubility (mole fraction)

> print(dat)
                cpd.smiles                    endpoint  reported.value
1  O=C(O)c1ccccc1Nc1ccccc1  solubility (mole fraction)          0.0219

---

condition: in n-butanol, 290.65 K
endpoint: solubility (mole fraction)

> print(dat)
                cpd.smiles  reported.value
1  O=C(O)c1ccccc1Nc1ccccc1           0.013

---

condition: in n-butanol, 305.65 K
endpoint: solubility (mole fraction)

> print(dat)
                cpd.smiles                    endpoint  reported.value
1  O=C(O)c1ccccc1Nc1ccccc1  solubility (mole fraction)          0.0256

---

condition: in n-propanol, 295.65 K
endpoint: solubility (mole fraction)

> print(dat)
                cpd.smiles                    endpoint  reported.value
1  O=C(O)c1ccccc1Nc1ccccc1  solubility (mole fraction)          0.0152

---

condition: in acetone, 293.15 K
endpoint: solubility (mole fraction)

> print(dat)
                cpd.smiles  reported.value
1  O=C(O)c1ccccc1Nc1ccccc1          0.0279

---

condition: in acetone, 290.65 K
endpoint: solubility (mole fraction)

> print(dat)
                cpd.smiles  reported.value
1  O=C(O)c1ccccc1Nc1ccccc1          0.0252

---

condition: in n-butanol, 313.15 K
endpoint: solubility (mole fraction)

> print(dat)
                cpd.smiles  reported.value
1  O=C(O)c1ccccc1Nc1ccccc1          0.0338

---

condition: in acetonitrile, 295.65 K
endpoint: solubility (mole fraction)

> print(dat)
                cpd.smiles                    endpoint  reported.value
1  O=C(O)c1ccccc1Nc1ccccc1  solubility (mole fraction)         0.00311

---

condition: in acetone, 315.65 K
endpoint: solubility (mole fraction)

> print(dat)
                cpd.smiles  reported.value
1  O=C(O)c1ccccc1Nc1ccccc1          0.0582

---

condition: in isopropanol, 288.15 K
endpoint: solubility (mole fraction)

> print(dat)
                cpd.smiles  reported.value
1  O=C(O)c1ccccc1Nc1ccccc1         0.00805

---

condition: in methanol, 290.65 K
endpoint: solubility (mole fraction)

> print(dat)
                cpd.smiles  reported.value
1  O=C(O)c1ccccc1Nc1ccccc1         0.00521

---

condition: in toluene, 300.65 K
endpoint: solubility (mole fraction)

> print(dat)
                cpd.smiles                    endpoint  reported.value
1  O=C(O)c1ccccc1Nc1ccccc1  solubility (mole fraction)         0.00648

---

condition: in methanol, 318.15 K
endpoint: solubility (mole fraction)

> print(dat)
                cpd.smiles                    endpoint  reported.value
1  O=C(O)c1ccccc1Nc1ccccc1  solubility (mole fraction)          0.0212

---

condition: in n-propanol, 308.15 K
endpoint: solubility (mole fraction)

> print(dat)
                cpd.smiles                    endpoint  reported.value
1  O=C(O)c1ccccc1Nc1ccccc1  solubility (mole fraction)          0.0266

---

condition: in acetone, 285.65 K
endpoint: solubility (mole fraction)

> print(dat)
                cpd.smiles  reported.value
1  O=C(O)c1ccccc1Nc1ccccc1          0.0202
